molecular target: PARP-1 full-length (human, UniProt P09874 2-1014); test: SPR; no inhibitor; SPR (Biacore 8K): 20 mM HEPES, 150 mM NaCl, 1 mM TCEP, 0.05% Tween-20, 1% (v/v) (component not given), pH not stated, 25 C; PARP-1 0.078-20 nM; n = 6; settings: protein: recombinant; tags: N-terminal 6His-6Lys tag, TEV site; label: biotin (internal dT, streptavidin chip); dumbbell of two hairpins with T7 loops, nick between the 5' and 3' ends; stems 13 and 12 bp
Sequence (P09874 2-1014): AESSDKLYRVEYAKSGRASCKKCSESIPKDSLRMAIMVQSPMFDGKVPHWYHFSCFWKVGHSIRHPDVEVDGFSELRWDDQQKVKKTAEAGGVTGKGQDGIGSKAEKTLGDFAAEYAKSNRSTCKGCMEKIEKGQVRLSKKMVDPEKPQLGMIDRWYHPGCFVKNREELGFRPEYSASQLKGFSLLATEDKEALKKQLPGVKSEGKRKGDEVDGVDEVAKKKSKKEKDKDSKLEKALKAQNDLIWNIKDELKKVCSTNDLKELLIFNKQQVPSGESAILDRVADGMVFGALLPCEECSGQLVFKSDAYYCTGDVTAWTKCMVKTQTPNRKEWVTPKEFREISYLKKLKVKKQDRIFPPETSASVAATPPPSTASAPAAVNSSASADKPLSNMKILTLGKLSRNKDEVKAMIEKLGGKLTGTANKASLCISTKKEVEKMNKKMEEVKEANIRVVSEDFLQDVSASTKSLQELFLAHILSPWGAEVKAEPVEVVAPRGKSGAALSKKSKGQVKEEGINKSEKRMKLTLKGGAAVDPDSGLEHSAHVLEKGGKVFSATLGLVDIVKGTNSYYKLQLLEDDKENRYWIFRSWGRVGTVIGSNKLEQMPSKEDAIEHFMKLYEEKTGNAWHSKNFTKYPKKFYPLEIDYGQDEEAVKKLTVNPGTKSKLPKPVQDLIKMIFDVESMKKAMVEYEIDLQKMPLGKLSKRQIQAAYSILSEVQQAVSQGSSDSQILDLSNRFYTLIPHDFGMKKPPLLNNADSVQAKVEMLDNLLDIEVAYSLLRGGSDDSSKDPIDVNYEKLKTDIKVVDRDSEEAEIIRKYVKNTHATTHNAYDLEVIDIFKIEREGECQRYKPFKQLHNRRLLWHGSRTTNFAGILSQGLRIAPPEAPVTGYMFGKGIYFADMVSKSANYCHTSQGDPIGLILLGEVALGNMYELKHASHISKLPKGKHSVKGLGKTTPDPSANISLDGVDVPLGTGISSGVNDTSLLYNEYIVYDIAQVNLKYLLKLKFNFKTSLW
Quantity: pKd
Just so you know, pKd here is -log10 of the concentration in molar units; reply with that number alone.

Quick one: pKd for biotinylated hairpin DNA (dumbbell single-strand break model) (structured_DNA, biotin-dT at position 17 (written as T; between S1 and S2)) DNA: GACAACCCGGCGCTTTTTTTGCGCCGGGTTGTCTGGCCCAGTTCGTTTTTTTCGAACTGGGCCA ?
8.68
